test system: SMN protein; assay: cellular SMN ELISA (SMN protein elevation); format: cell-based; conditions: myoblast cell line derived from SMNdelta7 mouse model; 24 hours compound treatment; concentration range 100 pM-10 uM
Endpoint Name: pEC50
# pEC50: negative log10 of molar concentration; output just the value

> print(dat)
                    structure.smiles.string  readout.number
1  COc1cc(-c2cnn(C)c2)ccc1-c1nnc(N(C)C2CC(C)(C)NC(C)(C)C2)s1            7.36
2  CN(c1nnc(-c2cc3c(cc2O)C(=O)CC3)s1)C1CC(C)(C)NC(C)(C)C1            7.04
3  CN(c1nnc(-c2ccc(-c3cn[nH]c3)c(F)c2F)s1)C1CC(C)(C)NC(C)(C)C1            7.48
4  CN1CC[C@@H]2CN(c3nnc(-c4ccc(-c5cn[nH]c5)cc4Cl)s3)C[C@@H]21            5.81
5  COc1ccc(-c2ccc(-c3nnc(N(C)C4CC(C)(C)NC(C)(C)C4)s3)c(Cl)c2)cn1            5.31
6  COc1cc(-c2ccn(C)c(=O)c2)ccc1-c1nnc(OC2CC(C)(C)NC(C)(C)C2)s1            5.82

Quick one: pEC50 of Cc1cc(-c2ccc(-c3nnc(N(C)C4CC(C)(C)NC(C)(C)C4)s3)c(F)c2)[nH]n1 ?
6.91

Quick one: pEC50 of COc1cc(-c2ncc(C)o2)cc(O)c1-c1nnc(N(C)C2CC(C)(C)NC(C)(C)C2)s1 ?
7.70

----------
test system: SMN protein; test: cellular SMN ELISA (SMN protein elevation); format: cell-based; conditions: myoblast cell line derived from SMNdelta7 mouse model; 24 hours compound treatment; concentration range 100 pM-10 uM
Reported SMN Activity Fold (fold activation over DMSO control) values for the following compounds.
Write it as a number; the unit fold goes unstated.

Below, each entry is followed by its recorded SMN Activity Fold (fold activation over DMSO control) result.
> print(dat)
                    structure.smiles.string  readout.number
1  CN(c1nnc(-c2ccc(-c3ccc(=O)n(C)c3)cc2O)s1)C1CC(C)(C)NC(C)(C)C1            2.74
2  CN(c1nnc(-c2ccc(-c3cn[nH]c3)cc2O)s1)C1CC(C)(C)NC(C)(C)C1            2.47
3  CN(c1nnc(-c2ccc(-c3ccn(C)c(=O)c3)cc2Cl)s1)C1CC(C)(C)NC(C)(C)C1            2.31

Quick one: SMN Activity Fold (fold activation over DMSO control) of CN(c1nnc(-c2cc(-n3cccn3)ccc2O)s1)C1CC(C)(C)NC(C)(C)C1 ?
2.28

Quick one: SMN Activity Fold (fold activation over DMSO control) of Fc1cc(-c2nnc(N3C[C@H]4CNC[C@H]4C3)s2)c(F)cc1-c1cn[nH]c1 ?
2.56

Quick one: SMN Activity Fold (fold activation over DMSO control) of COc1cc(-c2cnn(C)c2)ccc1-c1nnc(N2CC3(CCCNC3)C2)s1 ?
2.22

Quick one: SMN Activity Fold (fold activation over DMSO control) of CN(c1nnc(-c2ccc(-c3ccc(=O)[nH]c3)cc2Cl)s1)C1CC(C)(C)NC(C)(C)C1 ?
2.22

Quick one: SMN Activity Fold (fold activation over DMSO control) of CN(c1nnc(-c2ccc(-n3ccnn3)cc2Cl)s1)C1CC(C)(C)NC(C)(C)C1 ?
2.32

Quick one: SMN Activity Fold (fold activation over DMSO control) of COC(=O)c1ccc(-c2nnc(N(C)C3CC(C)(C)NC(C)(C)C3)s2)c(F)c1 ?
2.81

Quick one: SMN Activity Fold (fold activation over DMSO control) of CN(c1nnc(-c2cc(-c3ccnc(N)n3)ccc2Cl)s1)C1CC(C)(C)NC(C)(C)C1 ?
2.55

Quick one: SMN Activity Fold (fold activation over DMSO control) of CN(c1nnc(-c2c(F)cc(-c3cn[nH]c3)cc2F)s1)C1CC(C)(C)NC(C)(C)C1 ?
3.30

Quick one: SMN Activity Fold (fold activation over DMSO control) of COc1cc(-c2cccnc2)ccc1-c1nnc(N(C)C2CC(C)(C)NC(C)(C)C2)s1 ?
2.44

Quick one: SMN Activity Fold (fold activation over DMSO control) of CN(c1nnc(-c2c(O)cc(-c3cn[nH]c3)cc2F)s1)C1CC(C)(C)NC(C)(C)C1 ?
2.57

Quick one: SMN Activity Fold (fold activation over DMSO control) of OC[C@H]1CN(c2nnc(-c3ccc(-c4cn[nH]c4)cc3Cl)s2)CCN1 ?
2.06

Quick one: SMN Activity Fold (fold activation over DMSO control) of CN(c1nnc(-c2ccc(-n3ccnc3)cc2F)s1)C1CC(C)(C)NC(C)(C)C1 ?
2.50

Quick one: SMN Activity Fold (fold activation over DMSO control) of CN(c1nnc(-c2ccc(-c3cnn4c3CCCC4)cc2Cl)s1)C1CC(C)(C)NC(C)(C)C1 ?
2.44
